test system: CaES-17 (esophageal cancer cell); assay: Solid tumor cell growth inhibition, MTT, 72 h (Example 7); format: cell-based, human; settings: Homo sapiens, CaEs17; 72 h, MTT, CAES-17
For each of the compounds below, state its IC50.
Respond numerically; units are µg/mL and should not be typed.

Q: Query: IC50; subject: COCCCOCc1c2c3c(c(OC)c1OC)Oc1cc4c(cc1OC)CCN(C)[C@H]4Cc1ccc(cc1)Oc1cc(ccc1OC)C[C@@H]3N(C)CC2
Result: 2.3

Q: Query: IC50; subject: COc1ccc2cc1Oc1ccc(cc1)C[C@H]1c3cc(c(OC)cc3CCN1C)Oc1c(OC)c(OC)c(COC(=O)c3ccccc3)c3c1[C@H](C2)N(C)CC3
Result: 2.4

Q: Query: IC50; subject: COc1ccc2cc1Oc1ccc(cc1)C[C@H]1c3cc(c(OC)cc3CCN1C)Oc1c(OC)c(OC)c(COCc3ccsc3)c3c1[C@H](C2)N(C)CC3
Result: 1.74

Q: Query: IC50; subject: COc1ccc2cc1Oc1ccc(cc1)C[C@H]1c3cc(c(OC)cc3CCN1C)Oc1c(OC)c(OC)c(CN3CCOCC3)c3c1[C@H](C2)N(C)CC3
Result: 1.1

Q: Query: IC50; subject: CNCc1c2c3c(c(OC)c1OC)Oc1cc4c(cc1OC)CCN(C)[C@H]4Cc1ccc(cc1)Oc1cc(ccc1OC)C[C@@H]3N(C)CC2
Result: 2.5

Q: Query: IC50; subject: COc1ccc2cc1Oc1ccc(cc1)C[C@H]1c3cc(c(OC)cc3CCN1C)Oc1c(OC)c(OC)c(CN3CCCCC3)c3c1[C@H](C2)N(C)CC3
Result: 1.42

Where these numbers come from: patent US9133207B2
